Entries and their yeast fitness values follow.
B1: tRNA (parent)
chain: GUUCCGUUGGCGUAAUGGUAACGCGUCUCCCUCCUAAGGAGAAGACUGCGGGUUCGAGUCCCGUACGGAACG

variants of: B1; experiment: yeast fitness relative to wild type (ratio to wild type); higher = fitter; tRNA-Arg(CCU), competitive growth, 37 C, YPD
Fewer inactive variants are shown than the library holds.

1. C5U A14G A65U G67A: 0.689
2. U3G A14U C30U C55A: ≤ 0.5
3. C24A G25A U35A: ≤ 0.5

INPUT: Which yeast fitness is listed for U2G C4A G38C G50A ?
OUTPUT: 0.713

INPUT: // query: A43C G67U
OUTPUT: 0.849

INPUT: // query: C22G C29G C33U A42G G50A C66U
OUTPUT: ≤ 0.5

INPUT: // query: A20U C30G A69U
OUTPUT: 0.59

INPUT: // query: G17A G41C A43G G58C
OUTPUT: ≤ 0.5

INPUT: // query: C27U C49G A69U
OUTPUT: 0.542

INPUT: // query: A14U C55A U59G A65C
OUTPUT: 0.561

INPUT: // query: C11G A15U
OUTPUT: 0.594

INPUT: // query: U26C C29U C61U
OUTPUT: ≤ 0.5

INPUT: // query: C29G U32G G38A C46U A70U
OUTPUT: ≤ 0.5

INPUT: // query: C11U C30A G51A G67A
OUTPUT: ≤ 0.5

INPUT: // query: U2G A21C C22U C31U C33U C62A
OUTPUT: ≤ 0.5
